Cited source: the supplement of paper PMC13380429

Below: a set of entries, each annotated with reported drug sensitivity score.
# System: HepG2
# runDescription: drug sensitivity score (DSS) for viability; higher = more toxic; extreme values may be limits of the assay
# conditionSummary: 72 h
valueKind: drug sensitivity score

> print(dat)
                                   compound               valuekind  observedvalue
1  Nc1ccc2cc3ccc(N)cc3nc2c1 [proflavine-hemisulfate]  drug sensitivity score            9.1
2  CCN(CC)CCNC(=O)c1cc(S(C)(=O)=O)ccc1OC [tiapride]  drug sensitivity score              0
3  CNC(=O)c1ccc2cc([C@@]3(O)CCn4cncc43)ccc2c1 [orteronel]  drug sensitivity score              0
4  Cc1nc2ccccc2c(-c2ccc3c4c(ccnc24)CCO3)c1[C@H](OC(C)(C)C)C(=O)O  drug sensitivity score            0.1
5  COc1cc(/C=C/C(N)=O)cc(OC)c1OC [cintriamide]  drug sensitivity score              0
6  FC(F)(F)Oc1ccc2nc(-c3ccc(OCCOCCOc4ccc(-c5nc6ccc(OC(F)(F)F)cc6[nH]5)nc4)cn3)[nH]c2c1 [AI-10-49]  drug sensitivity score            8.2
7  CC1=CC(=C(c2ccc(N)cc2)c2ccc(N)cc2)C=CC1=N [basic-fuchsin]  drug sensitivity score            7.9
8  COc1ccn2ncc(-c3nc4[nH]nc(NC(=O)c5ccc(F)cc5)c4cc3F)c2c1 [CW-008]  drug sensitivity score              0
9  c1ccc(CNc2ncnc3[nH]cnc23)cc1 [6-benzylaminopurine]  drug sensitivity score              0
